Please respond with reported growth inhibition for every item in the list.
Assay: NCI Yeast Anticancer Drug Screen. Data for the mlh1 strain (AID 171);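 further: 0% = growth of vehicle-treated control cultures of the same strain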
Conditions: S. cerevisiae mlh1 strain growth inhibition; at 1.2 µM; active compounds read high
This is part of a sample that, as a whole, favours compounds with a hit. Of some 79,000 tested, about 15% had one in any assay.
One number for each entry, in %.

Answered examples (5):
* O=C(CC(=O)n1nc(-c2ccccc2)c(N=Nc2ccc(Cl)cc2)c1-c1ccccc1)Nc1cccc(Cl)c1 | -5
* CS(=O)(=O)SCc1ccc([N+](=O)[O-])cc1 | 6
* CC1=NOC(=O)/C1=C/c1ccc2c(c1)OCO2 | 3
* Cc1c2cccc(Sc3ccccc3)c2c2c3c(cccc13)[S+](c1ccccc1)C2 (stereo unspecified) | 0
* Cc1ccc(NC(=O)/C(CC2N=c3c(ccc4c(O)c5ccccc5c(O)c34)=NC2O)=N/NC(C)(C)C)cc1 (stereo unspecified) | 7

Batch request: growth inhibition for each of the following compounds.
1. O=C1C=C(Cl)C(=O)C(c2ccc(Cl)cc2)=C1
2. Cc1sc2ccc3ccccc3c2[n+]1C
3. Cc1cccc(/C=N/NC(=S)N2CCCC2)n1
4. CC(C)(C)N=C(NO)c1ccccc1
5. CCCCN(CCCC)CCC(O)c1cc2c(Cl)cc(Cl)cc2c2cc(C(F)(F)F)ccc12 (stereo unspecified)
6. CC1CC[C@]2(C(=O)O)CCC3(C)C(=CC(=O)C4[C@@]5(C)CCC(=O)C(C)(C)C5CC[C@]43C)[C@@H]2[C@H]1C (stereo partly specified)

[A]
1. 34
2. -67
3. -8
4. 3
5. 14
6. 14

Dear reader, for each entry below, please note its growth inhibition.
1. CN(C)[C@@H]1C(=O)C(C(N)=O)=C(O)[C@@]2(O)C(=O)C3=C(O)c4c(O)cccc4C[C@H]3C[C@@H]12
2. CN(C)C=NC1CCC(C(C)(C)C)CC1 (stereo unspecified)
3. CCCCOCn1c(=O)[nH]c(=O)c2cc(Br)ccc21

[A]
-13
8
-48
